result_type: melting point (°C)
Give bare numbers, in °C.

Previously resolved entries follow.
c1ccc(-c2ncc(-c3cnc(CCc4cccnc4)[nH]3)cn2)cc1 ... 113
O=C(c1cccnc1)N1CCC(c2nc(-c3cnc(-c4ccccc4)nc3)c[nH]2)CC1 ... 234
Cc1nc(-c2ccccc2)[nH]c1-c1cnc(-c2ccccc2)nc1 ... 138
c1ccc(Cc2ncc(-c3cnc(-c4ccccc4)nc3)[nH]2)cc1 ... 235
C(=C\c1ncc(-c2cnc(-c3ccccc3)nc2)[nH]1)/c1cccnc1 ... 258

Below is a list of compounds. For each, state its recorded melting point.
1. c1ccc(-c2ccc(-c3cnc(-c4ccccc4)[nH]3)cn2)cc1
2. c1ccc(-c2ncc(-c3nnn[nH]3)cn2)cc1

1. 206
2. 237

# per-item lookup of melting point; items listed below
1. c1ccc(Oc2ncc(-c3cnc(-c4ccccc4)[nH]3)cn2)cc1
2. CC(C)(C)OC(=O)N1CCCC(c2ncc(-c3cnc(-c4ccccc4)nc3)[nH]2)C1 (racemic)

[254, 130]

Batch: melting point for all items listed.
1. O=C(O)C(F)(F)F.c1ccc(-c2ncc(-c3csc(C4CCNCC4)n3)cn2)cc1
2. c1ccc(-c2ncc(-c3cnc(-c4ccccn4)[nH]3)cn2)cc1

1: 290; 2: 262

Take each entry in turn and give its melting point.
1. Fc1cccc(-c2nc(-c3cnc(-c4ccccc4)nc3)cs2)c1
2. Fc1cccc(-c2ncc(-c3cnc(-c4cccnc4)[nH]3)cn2)c1
3. c1cncc(-c2ncc(-c3cnc(-c4cccnc4)[nH]3)cn2)c1
4. CC(C)(C)OC(=O)N1CCC(c2ncc(-c3cnc(-c4ccccc4)nc3)[nH]2)C1 (racemic)
5. c1ccc(Cc2nc(-c3cnc(-c4ccccc4)nc3)cs2)cc1

1. 228
2. 309
3. 299
4. 219
5. 170

---

- tested_on: UniProt O60760
- Sequence (O60760 whole entry): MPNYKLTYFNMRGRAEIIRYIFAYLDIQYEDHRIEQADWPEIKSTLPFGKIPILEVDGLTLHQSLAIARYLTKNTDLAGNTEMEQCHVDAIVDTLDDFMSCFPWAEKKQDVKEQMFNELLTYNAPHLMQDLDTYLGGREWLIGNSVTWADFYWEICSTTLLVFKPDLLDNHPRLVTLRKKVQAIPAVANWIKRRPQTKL
- assay_text: H-PGDS Fluorescence Polarization Binding Assay (FPBA)
- condition_info: H-PGDS-MBP fusion enzyme, fluorescent probe, reduced glutathione 5 mM, 60-90 minutes at room temperature, 96-well format
Cut-off 3000 nM on IC50: below means MET, at or above means NOT MET.

Field: example entries. Status: answers known.
Fc1cccc(-c2nc(-c3cnc(-c4ccccc4)nc3)cs2)c1 ... NOT MET
Cc1ccc(-c2cnc(-c3cccnc3)[nH]2)cn1 ... NOT MET
O=C(O)c1csc(-c2cnc(-c3ccccc3)nc2)n1 ... MET
O=C(O)C(F)(F)F.c1ccc(-c2ncc(-c3csc(C4CCNCC4)n3)cn2)cc1 [Example 61, 2,2,2-trifluoroacetate] ... NOT MET
c1ccc(-c2ncc(-c3cnc(-c4ccccn4)[nH]3)cn2)cc1 ... MET

Please state whether IC50 is below 3000 nM for Cn1cncc1-c1cnc(-c2ccccc2)nc1
NOT MET

Quick one: c1ccc(-c2ncc(-c3cnc(C4CCCNC4)[nH]3)cn2)cc1 (racemic)
MET

Please answer likewise for c1ccc(-c2ncc(-c3ncc(-c4ccccc4)[nH]3)cn2)cc1
MET

Quick one: Cc1nc(-c2ccccc2)[nH]c1-c1cnc(-c2ccccc2)nc1
MET

---

What melting point was measured for each of the following?
# output: numeric value plus its unit

c1ccc(-c2ncc(-c3cnc(C4CCCNC4)[nH]3)cn2)cc1 (racemic) ... 140 °C
c1ccc(CN2CCC(c3ncc(-c4cnc(-c5ccccc5)nc4)[nH]3)CC2)cc1 ... 223 °C
c1ccc(-c2ncc(-c3cnc[nH]3)cn2)cc1 ... 216 °C
c1ccc(-c2ncc(-c3cnc(-c4ccccc4)[nH]3)cn2)cc1 ... 253 °C

Now examine the next entry.
Find the recorded melting point belonging to c1ccc(-c2ncc(-c3cnc(-c4ccncc4)[nH]3)cn2)cc1 and report it.
300 °C
